System: Veronica
METHOD: Post-emergence test/greenhouse
Format: in vivo
TEST_PARAMETERS: 125 g of ai./ha, after three weeks
Listed here are compounds together with their documented degree of damage, Veronica.

>  <COMPOUND>
CCC(Nc1nc(N)nc(C(C)F)n1)c1ccccc1 (racemic) [Example 1]

>  <QUANTITY_UNIT>
%

>  <degree of damage, Veronica>
100

$$$$
>  <COMPOUND>
CCC(Nc1nc(NC(C)=O)nc(C(C)F)n1)c1ccccc1 (racemic) [Example 2]

>  <QUANTITY_UNIT>
%

>  <degree of damage, Veronica>
95

$$$$
>  <COMPOUND>
CC(Nc1nc(N)nc(C(C)(C)F)n1)c1ccccc1 (racemic) [Example 13]

>  <QUANTITY_UNIT>
%

>  <degree of damage, Veronica>
100

$$$$
>  <COMPOUND>
CC(Nc1nc(N)nc(C(F)(F)F)n1)c1ccccc1 (stereo not shown) [(A), reference compound]

>  <QUANTITY_UNIT>
%

>  <degree of damage, Veronica>
90

$$$$
